experimentalDetails: NOD1 signaling inhibitors, primary screen, cell-based, luminescence, uHTS (AID 1578);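 also: HEK-293T reporter cells stimulated with the NOD1 agonist gamma-tri-DAP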
assaySetup: NOD1-driven NF-kB luciferase reporter cells, at 4 µM, active compounds read high
About 3,000 (1%) of roughly 290,000 compounds were called active. Many of the other results were omitted from the sample, so actives are more common in it than they were.
Assignment: determine reported inhibition for the given compounds.
Give bare numbers, in %.

Some entries whose results are on file:
- compound: "COc1cc2c(cc1OC)C(c1ccccc1)N(C(=O)c1ccco1)CC2 (stereo not given)"
  reportedMeasurement: 3.6
- compound: "C/C(=N\\NC(=O)c1ccccc1NC(=O)c1ccc(Cl)cc1)c1ccncc1"
  reportedMeasurement: 60.4
- compound: "Cc1nn(C(C)(C)C)c(OC(=O)c2ccc(Br)o2)c1Sc1ccccc1"
  reportedMeasurement: 19.3
- compound: "COc1ccc(OC)c(C(=O)NC(CC(N)=O)c2ccc(N3CCC(N4CCCC4)CC3)c([N+](=O)[O-])c2)c1 (stereo not given)"
  reportedMeasurement: 5.4

May I ask what inhibition has been recorded for CC/C(C)=N\N=C\c1c(O)n(CC)c2cc(C3=NNC(=O)CC3)ccc12 ?
-29.5

* * *

experimentalDetails: NOD1 signaling inhibitors, primary screen, cell-based, luminescence, uHTS (AID 1578);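 also: HEK-293T reporter cells stimulated with the NOD1 agonist gamma-tri-DAP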
assaySetup: NOD1-driven NF-kB luciferase reporter cells, at 4 µM
About 3,000 (1%) of roughly 290,000 compounds were called active. No stated cut-off is given here; in the data, active means inhibition mostly above about 36% (no sharp cut-off); inactive means mostly below about 34%. The entries come from a sample that favours actives as a whole.
The reply should name one outcome from 1 for active, 0 for inactive

Consider the following illustrative entries.
- molecule: "COc1ccc(CNC(=O)/C=C/c2ccc(OCCCF)cc2)cc1"
  classLabel: 0
- molecule: "O=C(/C=C/c1ccc(OCCCF)cc1)Nc1ccnc(-c2cccnc2)n1"
  classLabel: 0
- molecule: "O=C(/C=C/c1ccc(OCCCF)cc1)Nc1ccnc(-c2ccncc2)n1"
  classLabel: 1
- molecule: "COc1ccc(-c2ccc(SC)nn2)cc1"
  classLabel: 0
- molecule: "COc1ccccc1CNC(=O)Cn1nnnc1CN(C)C(C)C"
  classLabel: 0
- molecule: "O=C(COC(=O)C12CC3CC(CC(C3)C1)C2)Nc1ccccc1F"
  classLabel: 0

Recorded call for O=C(C#Cc1ccccc1)c1cccc([N+](=O)[O-])c1 ?
1

* * *

experimentalDetails: NOD1 signaling inhibitors, primary screen, cell-based, luminescence, uHTS (AID 1578);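 also: HEK-293T reporter cells stimulated with the NOD1 agonist gamma-tri-DAP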
assaySetup: NOD1-driven NF-kB luciferase reporter cells, at 4 µM, active compounds read high
Screen size: about 290,000 compounds; about 3,000 (1%) were called active. The full list was thinned out, with actives kept by preference.
assayEndpoint: inhibition (%)
One number for each entry, in %.

Consider the following items and state reported inhibition for each.
1. O=C(Nc1cccnc1Oc1ccc(Cl)cc1)c1cccc2ccccc12
2. CCC(C(=O)O)N1C(=O)C2CCCCC2C1=O (centres undefined)
3. c1ccc(-c2noc(-c3cccnc3)n2)nc1
4. Cc1nc(C)c(-c2csc(Nc3ccc(F)cc3)n2)s1

[-9.2, 4.4, -11.3, 44.7]

* * *

experimentalDetails: NOD1 signaling inhibitors, primary screen, cell-based, luminescence, uHTS (AID 1578);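 also: HEK-293T reporter cells stimulated with the NOD1 agonist gamma-tri-DAP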
assaySetup: NOD1-driven NF-kB luciferase reporter cells, at 4 µM, active compounds read high
The whole screen tested about 290,000 compounds, of which about 3,000 (1%) were called active. Many of the other results were omitted from the sample, so actives are more common in it than they were.
Assignment: determine reported inhibition for the given molecules.
One number for each entry, in %.

Some entries whose results are on file:
- molecule: "CCOC(=O)C1CCN(S(=O)(=O)c2cccc3nonc23)CC1"
  reportedMeasurement: -27.8
- molecule: "C(=N\\n1cnnc1)/c1cccc2ccccc12"
  reportedMeasurement: 7.2
- molecule: "CCOC(=O)CNC(=O)CSc1nnc(NC(=O)c2ccc(C)cc2)s1"
  reportedMeasurement: 44.8
- molecule: "CCCCOc1ccc(CN2CCSCC2)cc1"
  reportedMeasurement: -28.4

Consider the following items and state reported inhibition for each.
1. CCOC(=O)C1CCN(S(=O)(=O)c2c(C)noc2C)CC1
2. CCC1Oc2ccc(C)cc2N(CC(=O)NCCN2CCOCC2)C1=O (centres undefined)

1. -15.9
2. -21

Consider the following items and state reported inhibition for each.
1. Cc1[nH]c2ccccc2c1C(=O)C(=O)NCc1cccs1
2. COc1ccc(CNC(=O)c2cc3cccc(OC)c3oc2=N)cc1
3. COc1ccccc1N(C(C)=O)c1nc(C)cc(C)c1C#N

-20.5
4.1
-33.1
